System: NCI-H460 tumor-bearing mice (lung cancer)
Assay Procedure: Biodistribution: lutetium accumulation in tumor, plasma and healthy tissues by ICP-MS
Format: in vivo
Experimental Setup: 0.5 mg/kg lutetium conjugate; liver; 24 h
Each entry below carries its recorded % ID/g uptake, Liver, 24 h.
Give just the number in % ID/g; leave the unit off.

Below, 2 compounds whose answers are already recorded.
| Compound | Measure | Result Number |
| --- | --- | --- |
| CCNC(=O)c1nnc(-c2cc(C(C)C)c(O)cc2O)n1-c1ccc2c(ccn2CCC2CCN(C(=O)CC[C@H](NC(=O)CC[C@H](C(=O)O)N3CCN4CCN5CCN(CC3)CC(=O)[O][Lu]([O]C(=O)C5)[O]C(=O)C4)C(=O)N3CCC(CCn4ccc5cc(-n6c(C(=O)NCC)nnc6-c6cc(C(C)C)c(O)cc6O)ccc54)CC3)CC2)c1 [T10] | % ID/g uptake, Liver, 24 h | 7.28 |
| CCNC(=O)c1nnc(-c2cc(C(C)C)c(O)cc2O)n1-c1ccc(CN2CCN(C(=O)CCNC(=O)[C@@H](CCC(=O)N3CCN(Cc4ccc(-n5c(C(=O)NCC)nnc5-c5cc(C(C)C)c(O)cc5O)cc4)CC3)NC(=O)CCNC(=O)[C@@H](CCC(=O)O)NC(=O)[C@@H](CCC(=O)O)NC(=O)[C@@H](CCC(=O)O)NC(=O)COCCOCCNC(=O)CNC(=O)[C@H](CCCCN)NC(=O)CNC(=O)CC[C@H](C(=O)O)N3CCN4CCN5CCN(CC3)CC(=O)[O][Lu]([O]C(=O)C5)[O]C(=O)C4)CC2)cc1 [T9] | % ID/g uptake, Liver, 24 h | 0.62 |

Next compound, please.
Can you share its % ID/g uptake, Liver, 24 h? I mean this compound: CCNC(=O)c1nnc(-c2cc(C(C)C)c(O)cc2O)n1-c1ccc(OC2CCN(C(=O)CCNC(=O)[C@@H](CCC(=O)N3CCC(Oc4ccc(-n5c(C(=O)NCC)nnc5-c5cc(C(C)C)c(O)cc5O)cc4)CC3)NC(=O)CCNC(=O)[C@@H](CCC(=O)O)NC(=O)[C@@H](CCC(=O)O)NC(=O)[C@@H](CCC(=O)O)NC(=O)COCCOCCNC(=O)[C@H](CCCCNC(=O)CC[C@H](C(=O)O)N(CC)CCN3CCN4CCN(C)CC(=O)[O][Lu]([O]C(=O)C4)[O]C(=O)C3)NC(=O)CCCc3ccc(I)cc3)CC2)cc1 [T12]
3.73
